Reported hu-IL1RaP ELISA (OD) values for the following binders.
experimental_system: T1, rhIL-1RAcP/Fc Chimera (human, UniProt Q9NPH3 21-359)
T1 construct: also called P013_03; P013-03
T1 sequence (looked up): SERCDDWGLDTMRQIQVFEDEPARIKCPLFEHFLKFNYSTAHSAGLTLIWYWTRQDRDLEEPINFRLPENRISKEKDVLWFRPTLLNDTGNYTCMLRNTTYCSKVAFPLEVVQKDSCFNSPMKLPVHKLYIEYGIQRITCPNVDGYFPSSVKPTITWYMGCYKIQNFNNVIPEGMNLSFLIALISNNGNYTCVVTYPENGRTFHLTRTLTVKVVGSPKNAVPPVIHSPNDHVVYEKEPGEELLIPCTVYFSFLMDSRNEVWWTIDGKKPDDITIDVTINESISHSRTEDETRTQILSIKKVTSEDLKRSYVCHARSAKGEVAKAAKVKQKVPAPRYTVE
assay_summary: ELISA, primary supernatant, coated hu-IL-1RAcP-Fc
Your answer should be a plain number; it is taken to be in OD.

Illustrative cases are given below, each with its answer.
{"binder": "P013.S.02.B.G01 (antibody, V domains shown, rabbit monoclonal antibody; also called P013.A.00015.G07) VH: QSVEESGGRLVTPGGSLTLTCKVSGFSLSDYDIYWVRQAPGKGLEWIGVIDIENSVYYPTWAKGRFTISKTSTTVDLKITSPTTEDTATYFCARGDYIMTLDLWGQGTLVTVSS VL: AAVLTQTPSPVSAAVGGTVTISCQASQSVYKNNRLAWYQQKPGQPPKLLIYLASTLASGVPSRFKGSGSGTQFTLTISDLESDDAATYYCAGGYSTISENAFGGGTEVVVK", "hu-IL1RaP ELISA (OD)": 2.2}
{"binder": "P013.S.02.B.G03 (antibody, V domains shown, rabbit monoclonal antibody; also called P013.A.00014.D07) VH: QSVEESGGRLVTPGTPLTLTCTVSGFSLSSYGMIWVRQAPGEGLEWIGFIGRGGATWYASWVKGRFTISKTSTTVDLKITSPTASDTATYFCARDGDSSDYYAFNLWGQGTLVTVSS VL: DVVMTQTPASVSEPVGGTVTIKCQASQNIGSNLAWYQQRSGQPPKLLIYGASTLASGVPSRFSGSGSGTEFTLTISGVQSADAATYFCQCSGYDITGVFPFGGGSEVVVK", "hu-IL1RaP ELISA (OD)": 1.4}

Next item in the queue.
What value of hu-IL1RaP ELISA (OD) has been reported for the following binder? P013.S.02.B.D05 (antibody, V domains shown, rabbit monoclonal antibody; also called P013.A.00086.B09) VH: QQQLVESGGGLVKPGASLTLTCKASGFSFSSGYYMCWVRQAPGKGLEWIACIGMGSGKTYYASWAKGRFTISKTSSTTVTLQMTSLTAADTATYFCARKDGSGNEHYNLWGPGTLVTVSS VL: DIVMTQTPASVEAAVGGTVTIRCQASQSISSYLAWYQRKPGQPPKVLIYKASTLASGVSSRFKGSGSGTEYTLTISDLESADAATYYCQQGYASSGVDNVFGGGTEVVVK
3.2
